test system: LS2 liposarcoma cell line; experiment: CellTiter-Glo viability, GR50, 72h; assay type: cell-based, human; details: LS2, 72h; read-out: Half maximum effective concentration corrected for cell growth (GR50)
Assay Readout: IC50 (nM)
# unit: nM | format: bare number

Given item `CC(C)C[C@H](NC(=O)CNC(=O)c1cc(Cl)ccc1Cl)B1OC(=O)C(CC(=O)O)(CC(=O)O)O1` , the value recorded as its IC50 is 629

From: paper PMC7946228
